This section presents compounds with their documented TGI values.
# Tested on: HCT-15 colon
# testProtocol: NCI tumour cell line growth inhibition, 48 h

# compound, TGI
measured = [
    ("COC(=O)[C@@]12C(=O)C=CC(=O)[C@@H]1C1C(=CC2COC(C)=O)O[C@@H]2OC3(CCCCC3)O[C@H]12 (some centres undefined)", "18.7 µM"),
    ("O=P1(C(O)/C=C/c2ccccc2)N(Cc2ccccc2)[C@H](c2ccccc2)[C@@H](c2ccccc2)N1Cc1ccccc1 (some centres undefined)", "> 85.3 µM"),
    ("Nc1ncnc2c1ncn2C1OC(COP(=O)(O)O)C(O)C1O (centres undefined)", "> 50 µM"),
    ("COc1ccc(C2CC(c3cc(OC)c(OC)c(OC)c3)=NO2)cc1OCCCCOc1cc2c(cc1OC)C(=O)N1CCC[C@H]1C=N2 (some centres undefined)", "5.54 µM"),
    ("Cc1cc(N(CCC#N)CCC#N)ccc1/C(N=Nc1ccc(Cl)cc1)=N\\NC(=O)c1cc(Cl)ccc1O", "> 100 µM"),
    ("CCOC(=O)NC(Nc1ncccn1)(C(F)(F)F)C(F)(F)F", "> 100 µM"),
    ("COc1cc(/C=C/c2ccncc2)cc(OC)c1OC", "> 100 µM"),
    ("CN(Cc1cnc2nc(N)nc(N)c2n1)c1ccc(C(=O)NC(CCC(=O)O)C(=O)O)cc1C(F)(F)F (centres undefined)", "> 100 µM"),
    ("COc1ccccc1/C=C/C1=NN(c2cccc(S(=O)(=O)O)c2)C2(C1)SCC(=O)N2c1nc2ccccc2s1 (centres undefined)", "> 100 µM"),
]

###

This section presents compounds with their documented TGI values.
# Test system: SR leukemia
# testProtocol: NCI tumour cell line growth inhibition, 48 h

# compound, TGI
records = [
    ("O=[N+]([O-])c1ccc(S(=O)(=O)Cc2ccccc2)c([N+](=O)[O-])c1", "6.03 µM"),
    ("O=S(=O)(O)c1c(Cl)cc(O)c2ncccc12", "> 100 µM"),
    ("NC1=NC(=O)/C(=C/c2ccccc2[N+](=O)[O-])C(N)=N1", "> 100 µM"),
    ("CCC(C)n1c(C)nc2c1C(=O)c1ccccc1C2=O (stereo unspecified)", "> 100 µM"),
    ("C=C(CN(C)C)C(=O)c1ccccc1C", "47.2 µM"),
    ("O=C(O)C/C(=C\\c1ccco1)C(=O)O", "> 100 µM"),
]

###

# Test system: CAKI-1 renal
# testProtocol: NCI tumour cell line growth inhibition, 48 h
This section presents compounds with their documented TGI values.
measuredEndpoint: TGI (µM)

# compound, measuredEndpoint, boundSign, assayResult
records = [
    ("Clc1ccc(CSC(Cn2ccnc2)c2ccc(Cl)cc2Cl)cc1 (stereo not given)", "TGI", "=", 4.05),
    ("CC(=O)NCCc1c2c(c3nccc4c3c1Nc1ccccc1-4)OCS2", "TGI", "=", 8.59),
    ("O=C(Nc1ccc(Cl)c(Cl)c1)c1cccc(NC2=C(Cl)C(=O)N(Cc3ccccc3)C2=O)c1", "TGI", ">", 100),
    ("NNC(=O)CSc1nc2ccc(I)cc2c(=O)n1Cc1ccccc1", "TGI", "=", 40.2),
    ("NC(=O)c1nnc2ccc(F)cc2c1N", "TGI", ">", 100),
    ("CCS(=O)(=O)N1CCC(C(C)n2c(C)c(C(=O)NCc3c(OC)cc(C)[nH]c3=O)c3ccccc32)CC1 (stereo not given)", "TGI", ">", 100),
    ("CC1(C)CC(=O)C(CCC(=O)/C=C/c2ccccc2)C(=O)C1", "TGI", ">", 100),
    ("CCC(C#N)(c1ccccc1)N(CCc1ccccc1)C(=O)c1ccccc1 (stereo not given)", "TGI", ">", 100),
    ("Cc1ccc2c3c1O[C@H]1c4[nH]c5ccccc5c4C[C@@]4(O)[C@@H](C2)N(C)CC[C@]314", "TGI", "=", 34.4),
    ("COc1cc(Cc2cc3c(c(C(=O)O)c2Br)OCO3)cc(OC)c1OC", "TGI", ">", 100),
]
